growth inhibition: recorded values
Assay: NCI Yeast Anticancer Drug Screen. Data for the mec2-1 strain (AID 157)
Settings: S. cerevisiae mec2-1 strain, at 50.0 µM, stronger effect = higher value
Procedure: Growth inhibition of yeast strains with defined genetic alterations is measured as a screen for potential anti-cancer activity. Selected strains with alterations in DNA damage repair or cell cycle control were exposed to compounds and growth inhibition was measured relative to vehicle treated controls. The strain used in this assay is mec2-1
The panel holds about 79,000 compounds, 15% with a hit somewhere; the sample as a whole holds those more often.
EXPERIMENTAL_READOUT: growth inhibition (%)

{"columns": ["COMPOUND", "QUANTITATIVE_READOUT"],
 "data": [
  ["CCCCCCC(O)CCCCCCCCCCC(=O)O (centres undefined)", 0.1],
  ["CCOC(=O)C(Nc1cc([N+](=O)[O-])ccc1C(=O)OC)(OC)C(=O)OCC", 15.4],
  ["CCCCCCC(=O)C(N)Cc1ccccc1 (centres undefined)", -27.1],
  ["O=c1cn[nH]c2c(Br)cc(Br)cc12", -0.3],
  ["CC12C3CC4C5CC(C(C53)[C@@H]1NCc1ccccc1)C42 (some centres undefined)", 6.8],
  ["c1ccc(C2=NOC3C4CCC(C4)C23)cc1 (centres undefined)", -20.4],
  ["OCCCN1CCN(CCO)CC1", -14.8],
  ["N#CCCc1ccc[nH]1", -8.45],
  ["O=C1CCCCC1N1CCCCC1 (centres undefined)", -14.7],
  ["NCCCCC(N)C(=O)NCCNc1ccc(NCCNC(=O)C(N)CCCCN)c2c1C(=O)c1ccccc1C2=O (centres undefined)", 7.4],
  ["COc1ccc(/C=N/NC(=O)c2ccccc2OC)cc1", 19.6],
  ["COC(=O)c1cc([N+](=O)[O-])cc2ccccc12", -24.6],
  ["CCOC(=O)c1c(C)c(C(C)=O)c2ccccn12", -17.4],
  ["O=C1c2ccccc2-c2ccc(-c3ccc4c5c(cccc35)C(=O)c3ccccc3-4)c3cccc1c23", -27.6],
  ["COc1ccc(Cc2ccc(Cl)cc2)c(OC)c1", 2.25],
  ["CCCC1=C(CC)C(C(=O)Nc2c(C)cccc2C)=NC(S)N1 (centres undefined)", -15.6],
  ["CNC(=O)O[C@H]1C(=O)O[C@@H]2C[C@H]3C(C)=C(O)C(=O)C[C@]3(C)[C@H]3[C@@H](O)[C@H](O)[C@@]4(C(=O)OC)OC[C@]32[C@@H]14", 16.4],
  ["CC(=NCCN=C(C)c1ccc(Br)cc1)c1ccc(Br)cc1", -6.95],
  ["CCOC(=O)C(O)Cc1cnc2ccccc2n1 (centres undefined)", -13.3],
  ["O=C(Nc1cc([N+](=O)[O-])ccc1F)Oc1ccc(OCc2ccccc2)cc1", -1.5],
  ["CC1(C)C2CCC3CC(CCC#N)CCC3C21C#N (centres undefined)", -11.2],
  ["CN(C)CCCc1cccc2[nH]c3c(c12)CN(C)CC3", -5],
  ["OCC(O)C(O)C(O)C(O)C(OCc1ccccc1)OCc1ccccc1 (centres undefined)", 7.55],
  ["CN(C)C1CCC(C=C(C2CCC(CC(=O)O)CC2)C2CCC(CC(=O)O)CC2)CC1 (centres undefined)", -21.5]
]}
